Please respond with reported Activity for every item in the list.
- System: HepG2
- Experimental Protocol: Hypolipidemic activity in sodium oleate and sodium palmitate induced human HepG2 cells assessed as decrease in intracellular lipid content at 5 uM by Oil Red O staining based assay
- Format: functional
- Parameters: scale not given: the % may be the effect or the level left
Reply with a number, then the unit it belongs to.

# annotated cases, reported Activity shown
compound_string=O=c1cc(-c2ccc(O)cc2)oc2cc(O[C@@H]3O[C@H](CO)[C@@H](O)[C@H](O)[C@H]3O)cc(O)c12 property_label=Activity experimental_result=95.1%
compound_string=O=C(O)CC(=O)OC[C@H]1O[C@@H](Oc2cc(O)c3c(=O)cc(-c4ccc(O)cc4)oc3c2)[C@H](O)[C@@H](O)[C@@H]1O property_label=Activity experimental_result=74.9%
compound_string=O=c1cc(-c2ccc(O)c(O)c2)oc2cc(O[C@@H]3O[C@H](CO)[C@@H](O)[C@H](O)[C@H]3O)cc(O)c12 property_label=Activity experimental_result=62.5%
compound_string=O=c1cc(-c2ccc(O)cc2)oc2cc(O)cc(O)c12 property_label=Activity experimental_result=92.4%
compound_string=O=C(O)CC(=O)OC[C@H]1O[C@@H](Oc2cc(O)c3c(=O)cc(-c4ccc(O)c(O)c4)oc3c2)[C@H](O)[C@@H](O)[C@@H]1O property_label=Activity experimental_result=61.5%

Batch of 2 molecules: report Activity for each.
1. CC[C@H](C)C(=O)O[C@H]1C[C@@H](C)C=C2C=C[C@H](C)[C@H](CC[C@@H]3C[C@@H](O)CC(=O)O3)[C@H]21
2. O=c1cc(-c2ccc(O)c(O)c2)oc2cc(O)cc(O)c12

["76.9%", "91.6%"]

====

Please respond with reported inhibition for every item in the list.
- Measured On: Pancreatic triacylglycerol lipase (Homo sapiens) (UniProt P16233)
- Sequence (whole entry): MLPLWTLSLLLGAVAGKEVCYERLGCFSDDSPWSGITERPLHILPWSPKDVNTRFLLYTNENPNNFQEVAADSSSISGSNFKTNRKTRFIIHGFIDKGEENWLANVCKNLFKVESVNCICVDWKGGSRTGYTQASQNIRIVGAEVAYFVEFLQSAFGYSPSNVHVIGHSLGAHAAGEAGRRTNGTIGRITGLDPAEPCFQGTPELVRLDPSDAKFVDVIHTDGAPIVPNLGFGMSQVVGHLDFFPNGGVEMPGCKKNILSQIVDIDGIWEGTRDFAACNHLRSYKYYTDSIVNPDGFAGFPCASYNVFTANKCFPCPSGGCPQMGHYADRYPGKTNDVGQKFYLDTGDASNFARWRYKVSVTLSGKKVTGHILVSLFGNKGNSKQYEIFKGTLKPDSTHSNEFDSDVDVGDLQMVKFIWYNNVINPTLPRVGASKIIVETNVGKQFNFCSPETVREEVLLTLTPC
- Experimental Protocol: Inhibition of Pancreatic lipase (unknown origin) using 4-methylumbelleallyl oleate as substrate at 50 uM by microplate reader assay
One number for each entry, in %.

# annotated cases, reported inhibition shown
compound_string=O=c1cc(-c2ccc(O)cc2)oc2cc(O[C@@H]3O[C@H](CO)[C@@H](O)[C@H](O)[C@H]3O)cc(O)c12 experimental_result=59.1
compound_string=O=c1cc(-c2ccc(O)c(O)c2)oc2cc(O[C@@H]3O[C@H](CO)[C@@H](O)[C@H](O)[C@H]3O)cc(O)c12 experimental_result=49.5
compound_string=O=c1cc(-c2ccc(O)c(O)c2)oc2cc(O)cc(O)c12 experimental_result=41.2
compound_string=O=C(O)CC(=O)OC[C@H]1O[C@@H](Oc2cc(O)c3c(=O)cc(-c4ccc(O)cc4)oc3c2)[C@H](O)[C@@H](O)[C@@H]1O experimental_result=47.2
compound_string=O=c1cc(-c2ccc(O)cc2)oc2cc(O)cc(O)c12 experimental_result=56.3

In plain terms, "O=C(O)CC(=O)OC[C@H]1O[C@@H](Oc2cc(O)c3c(=O)cc(-c4ccc(O)c(O)c4)oc3c2)[C@H](O)[C@@H](O)[C@@H]1O" has a documented inhibition of 65.8
